Taken from paper PMC12136991.

// half-life at 1 μM lookup, one value per entry
Test: Multi-point cytosol stability assay, mouse
Format: in vitro ADME
Conditions: mouse cytosol fractions, pH 7.4
The reply should be a number in h, with the unit left off.

Exercise: Form field: reported half-life at 1 μM of C=C[C@H]1[C@H]2CCC[C@]1(c1cccc(NC(C)=O)c1)CCN2CCc1ccccc1 [compound 3]
Solution: 0.382

Now let's try a different one.
Exercise: Form field: reported half-life at 1 μM of C=C[C@H]1C2CCCC1(c1cccc(O)c1)CCN2CCc1ccccc1[N+](=O)[O-] (stereo in doubt) [compound 24]
Solution: 1.7

====

// half-life at 1 μM lookup, one value per entry
Assay: Multi-point cytosol stability assay, human
Type: in vitro ADME
Details: human cytosol fractions, pH 7.4
The reply should be a number in h, with the unit left off.

Exercise: Form field: reported half-life at 1 μM of C=C[C@H]1[C@H]2CCC[C@]1(c1cccc(O)c1)CCN2C
Solution: 1.63

Now let's try a different one.
Exercise: Form field: reported half-life at 1 μM of C=C[C@H]1[C@H]2CCC[C@]1(c1cccc(NC(C)=O)c1)CCN2CCc1ccccc1
Solution: 1.3
